Test system: Escherichia coli TOP10
Assay Explanation: shrunken log2 fold change of peptide-encoding DNA abundance (4.5 h post-induction vs induction); higher = less antimicrobial activity (less host growth inhibition)
Condition Description: time post-induction: 4.5 h; library: site-saturation at positions 5, 18, 19, 20
Reported shrunken log2 fold change values follow for various sequences

Record Sequence: RRIRTRPPRLPRPRPRPIHEPRP
shrunken log2 fold change: -0.259
//
Record Sequence: RRIRERPPRLPRPRPRPKQPPRP
shrunken log2 fold change: 0.236
//
Record Sequence: RRIRERPPRLPRPRPRPARQPRP
shrunken log2 fold change: 0.0428
//
Record Sequence: RRIRDRPPRLPRPRPRPAPVPRP
shrunken log2 fold change: 0.49
//
Record Sequence: RRIRIRPPRLPRPRPRPIKLPRP
shrunken log2 fold change: -0.289
//
Record Sequence: RRIRSRPPRLPRPRPRPEAMPRP
shrunken log2 fold change: 1.09
//
Record Sequence: RRIRFRPPRLPRPRPRPKSPPRP
shrunken log2 fold change: -0.143
//
Record Sequence: RRIRARPPRLPRPRPRPPDRPRP
shrunken log2 fold change: 0.853
//
Record Sequence: RRIRVRPPRLPRPRPRPDEKPRP
shrunken log2 fold change: 0.11
//
Record Sequence: RRIRIRPPRLPRPRPRPALGPRP
shrunken log2 fold change: 0.0956
//
Record Sequence: RRIRQRPPRLPRPRPRPKMIPRP
shrunken log2 fold change: -0.231
//
Record Sequence: RRIRIRPPRLPRPRPRPPCWPRP
shrunken log2 fold change: 0.836
//
Record Sequence: RRIRHRPPRLPRPRPRPLPVPRP
shrunken log2 fold change: 0.125
//
Record Sequence: RRIRARPPRLPRPRPRPYVDPRP
shrunken log2 fold change: -0.16
//
Record Sequence: RRIRFRPPRLPRPRPRPYKEPRP
shrunken log2 fold change: -0.0907
//
Record Sequence: RRIRHRPPRLPRPRPRPFCWPRP
shrunken log2 fold change: 0.252
//
Record Sequence: RRIRTRPPRLPRPRPRPDQPPRP
shrunken log2 fold change: 0.00486
//
Record Sequence: RRIRVRPPRLPRPRPRPCHKPRP
shrunken log2 fold change: -0.203
//
Record Sequence: RRIRQRPPRLPRPRPRPFAKPRP
shrunken log2 fold change: -0.0663
//
Record Sequence: RRIRDRPPRLPRPRPRPFHYPRP
shrunken log2 fold change: -0.00232
//
Record Sequence: RRIRQRPPRLPRPRPRPTQYPRP
shrunken log2 fold change: -0.0342
//
Record Sequence: RRIRPRPPRLPRPRPRPVMNPRP
shrunken log2 fold change: -0.29
//
Record Sequence: RRIRARPPRLPRPRPRPRKHPRP
shrunken log2 fold change: 0.146
//
Record Sequence: RRIRFRPPRLPRPRPRPFMFPRP
shrunken log2 fold change: -0.739
//
Record Sequence: RRIRPRPPRLPRPRPRPCIFPRP
shrunken log2 fold change: -0.359
//
Record Sequence: RRIRRRPPRLPRPRPRPNRIPRP
shrunken log2 fold change: 0.0217
//
Record Sequence: RRIRCRPPRLPRPRPRPYTAPRP
shrunken log2 fold change: -0.595
//
Record Sequence: RRIRCRPPRLPRPRPRPMSVPRP
shrunken log2 fold change: -0.0655
//
Record Sequence: RRIRHRPPRLPRPRPRPQMNPRP
shrunken log2 fold change: -0.312
//
Record Sequence: RRIRFRPPRLPRPRPRPNWQPRP
shrunken log2 fold change: 0.0965
//
Record Sequence: RRIRHRPPRLPRPRPRPARLPRP
shrunken log2 fold change: 0.568
//
Record Sequence: RRIRFRPPRLPRPRPRPVEKPRP
shrunken log2 fold change: 0.149

* * *

System: Escherichia coli TOP10;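 also: peptides expressed intracellularly from a pBAD plasmid library in pooled LB shake-flask culture, induced with 0.3% L-arabinose, DNA abundance read by NGS, three biological replicates, DESeq2 with apeglm shrinkage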
Assay Explanation: shrunken log2 fold change of peptide-encoding DNA abundance (4.5 h post-induction vs induction); higher = less antimicrobial activity (less host growth inhibition)
Condition Description: time post-induction: 4.5 h; library: site-saturation at positions 5, 18, 19, 20
Reported shrunken log2 fold change values follow for various sequences
Measured Quantity: shrunken log2 fold change

Record Sequence: RRIRYRPPRLPRPRPRPWWYPRP
Value: -0.139

Record Sequence: RRIRYRPPRLPRPRPRPIKYPRP
Value: -0.0893

Record Sequence: RRIRTRPPRLPRPRPRPTSSPRP
Value: 0.113

Record Sequence: RRIRKRPPRLPRPRPRPVPCPRP
Value: 0.0663

Record Sequence: RRIRERPPRLPRPRPRPQAYPRP
Value: -0.131

Record Sequence: RRIRIRPPRLPRPRPRPSASPRP
Value: 0.0632

Record Sequence: RRIRYRPPRLPRPRPRPDAGPRP
Value: -0.492

Record Sequence: RRIRKRPPRLPRPRPRPTFDPRP
Value: 0.227

Record Sequence: RRIRNRPPRLPRPRPRPNNYPRP
Value: -1.01

Record Sequence: RRIRQRPPRLPRPRPRPQCSPRP
Value: -0.203

Record Sequence: RRIRIRPPRLPRPRPRPEDEPRP
Value: 0.0112

Record Sequence: RRIRKRPPRLPRPRPRPNQLPRP
Value: -0.33

Record Sequence: RRIRQRPPRLPRPRPRPLFMPRP
Value: -1.12

Record Sequence: RRIRGRPPRLPRPRPRPNDTPRP
Value: 0.188

Record Sequence: RRIRMRPPRLPRPRPRPFNIPRP
Value: -0.3

Record Sequence: RRIRYRPPRLPRPRPRPSDTPRP
Value: -1.27

Record Sequence: RRIRNRPPRLPRPRPRPVDKPRP
Value: 0.0215

Record Sequence: RRIRKRPPRLPRPRPRPQQEPRP
Value: 0.0644

Record Sequence: RRIRSRPPRLPRPRPRPVKCPRP
Value: -0.0337

Record Sequence: RRIRDRPPRLPRPRPRPDWMPRP
Value: 0.0771

Record Sequence: RRIRDRPPRLPRPRPRPRQMPRP
Value: 0.019

Record Sequence: RRIRDRPPRLPRPRPRPVPTPRP
Value: 0.247

Record Sequence: RRIRQRPPRLPRPRPRPATCPRP
Value: -0.0483

Record Sequence: RRIRNRPPRLPRPRPRPVFCPRP
Value: 0.36

Record Sequence: RRIRVRPPRLPRPRPRPYNMPRP
Value: -0.979

Record Sequence: RRIRERPPRLPRPRPRPPAQPRP
Value: 0.0318

Record Sequence: RRIRRRPPRLPRPRPRPHGMPRP
Value: 0.0957

Record Sequence: RRIRGRPPRLPRPRPRPAGKPRP
Value: 0.338

Record Sequence: RRIRLRPPRLPRPRPRPVPGPRP
Value: 0.113

Record Sequence: RRIRCRPPRLPRPRPRPKHLPRP
Value: -0.122

Record Sequence: RRIRARPPRLPRPRPRPAWRPRP
Value: 0.649

Record Sequence: RRIRERPPRLPRPRPRPACPPRP
Value: -0.0623

Record Sequence: RRIRLRPPRLPRPRPRPVTGPRP
Value: -0.121

Record Sequence: RRIRHRPPRLPRPRPRPDNCPRP
Value: -0.0245

Record Sequence: RRIRDRPPRLPRPRPRPMIRPRP
Value: -0.0188

Record Sequence: RRIRTRPPRLPRPRPRPKLTPRP
Value: 0.0272

Record Sequence: RRIRWRPPRLPRPRPRPGNIPRP
Value: -0.472

Record Sequence: RRIRIRPPRLPRPRPRPICCPRP
Value: -0.107

Record Sequence: RRIRFRPPRLPRPRPRPMRAPRP
Value: 1.02

Record Sequence: RRIRERPPRLPRPRPRPYYVPRP
Value: -0.559

Record Sequence: RRIRSRPPRLPRPRPRPDWWPRP
Value: -0.0873

Record Sequence: RRIRNRPPRLPRPRPRPWSTPRP
Value: -0.0852

Record Sequence: RRIRNRPPRLPRPRPRPVCCPRP
Value: -0.146

Record Sequence: RRIRTRPPRLPRPRPRPLHDPRP
Value: -0.21

Record Sequence: RRIRTRPPRLPRPRPRPFRTPRP
Value: -0.146

Record Sequence: RRIRDRPPRLPRPRPRPHQSPRP
Value: 0.0679

Record Sequence: RRIRERPPRLPRPRPRPMCNPRP
Value: -0.0237

Record Sequence: RRIRDRPPRLPRPRPRPMVWPRP
Value: 0.851

Record Sequence: RRIRLRPPRLPRPRPRPLEVPRP
Value: -0.0281

Record Sequence: RRIRHRPPRLPRPRPRPIPKPRP
Value: -0.0389

Record Sequence: RRIRFRPPRLPRPRPRPIFSPRP
Value: -0.341

Record Sequence: RRIRNRPPRLPRPRPRPRQQPRP
Value: 0.365

Record Sequence: RRIRCRPPRLPRPRPRPVSGPRP
Value: 0.357

Record Sequence: RRIRVRPPRLPRPRPRPAWHPRP
Value: 0.657

Record Sequence: RRIRIRPPRLPRPRPRPIGNPRP
Value: -0.104

Record Sequence: RRIRNRPPRLPRPRPRPPYPPRP
Value: -0.0162

Record Sequence: RRIRNRPPRLPRPRPRPTSAPRP
Value: 0.163

Record Sequence: RRIRARPPRLPRPRPRPGKGPRP
Value: 0.158

Record Sequence: RRIRMRPPRLPRPRPRPLGWPRP
Value: 1.32

Record Sequence: RRIRDRPPRLPRPRPRPHNRPRP
Value: -0.00159

Record Sequence: RRIRGRPPRLPRPRPRPQVFPRP
Value: 0.0336

Record Sequence: RRIRFRPPRLPRPRPRPWETPRP
Value: 0.0299

Record Sequence: RRIRIRPPRLPRPRPRPQNGPRP
Value: -0.294
